Below are IC50 values recorded for p300 HAT domain (residues 1287-1666) (Homo sapiens (Human), UniProt Q09472).

Known IC50 results, listed for orientation:
* CCCCCCc1cccc(C(NCCc2ccc(C#N)cc2)C(=O)Nc2ccc(-c3cnn(C)c3)cn2)c1 (single isomer, unassigned) [118 Isomer 1] | > 2000 nM
* CC(CNC(C(=O)Nc1ccc(-c2cnn(C)c2)cn1)c1ccccc1)c1ccc(C#N)cc1F (single isomer, unassigned) [90 Isomer 4] | > 2000 nM

From here, focus on the item given below.
Field IC50 (system: p300 HAT domain (residues 1287-1666) (Homo sapiens (Human), UniProt Q09472)) for entry CC(CNC(C(=O)Nc1ccc(N2CCN(C)S2(=O)=O)cn1)c1ccccc1)c1ccc(C#N)cc1 (single isomer, unassigned) [108 Isomer 3] = > 2000 nM

* * *

Here's what we have: pIC50 numbers for p300 HAT domain (residues 1287-1666) (Homo sapiens (Human), UniProt Q09472).
pIC50: −log10 of the molar value.

• C[C@H](CNC(C(=O)Nc1ccc(-c2ccc(=O)n(C)n2)cn1)c1ccccc1)c1ccc(C#N)cc1 (single isomer, unassigned) [134 Isomer 1] = < 5.70
• Cc1cnn(-c2ccc(NC(=O)C(NCC(C)c3ccc(C#N)cc3)c3ccccc3)nc2)c1 (single isomer, unassigned) [62 Isomer 3] = < 5.70

// sample COc1cc(-c2cnn(C)c2)ccc1NC(=O)C(NCCc1ccc(C#N)cc1)c1ccccc1 (single isomer, unassigned) [24 Isomer 1] , its pIC50 was < 5.30

* * *

pIC50: −log10 of the molar value.
Reported pIC50 for target or system p300 HAT domain (residues 1287-1666) (Homo sapiens (Human), UniProt Q09472), by entry.

- CN1CCN(c2ccc(NC(=O)C(NCCc3ccc(C#N)cc3)c3ccccc3)nc2)CC1 (single isomer, unassigned) [49 Isomer 2]: < 5.30
- CC(CNC(C(=O)Nc1ccc(N2CCN(CC(F)(F)F)C(=O)C2)cn1)c1ccccc1)c1ccc(C#N)cc1 (single isomer, unassigned) [103 Isomer 4]: < 5.70
- Cc1ccn(-c2ccc(NC(=O)C(NCC(C)c3ccc(C#N)cc3)c3ccccc3)nc2)n1 (single isomer, unassigned) [61 Isomer 4]: 5.87
- CC(CNC(C(=O)Nc1ccc(-c2cnn(C)c2)cc1)c1ccccc1)c1ccc(Cl)cc1 (single isomer, unassigned) [2 Isomer 1]: < 5.30
- Cn1cc(-c2ccc(NC(=O)C(NCCc3ccc(F)cc3)c3ccccc3)nc2)cn1 (single isomer, unassigned) [58 Isomer 2]: < 5.30

Measured on p300 HAT domain (residues 1287-1666) (Homo sapiens (Human), UniProt Q09472), Cn1cc(-c2ccc(NC(=O)C(NCCc3ccc(C#N)cc3)c3cccc(Cl)c3)nc2)cn1 (single isomer, unassigned) [79 Isomer 1] has a documented pIC50 of < 5.70

Entry Cn1cc(-c2ccc(NC(=O)C(NCC3(c4ccc(Cl)cc4)CC3)c3ccccc3)nc2)cn1 (single isomer, unassigned) [97 Isomer 2] , tested on p300 HAT domain (residues 1287-1666) (Homo sapiens (Human), UniProt Q09472), has a reported pIC50 of < 5.70

Entry N#Cc1ccc(CCNC(C(=O)Nc2ccc(C3CCC3)cn2)c2ccccc2)cc1 (single isomer, unassigned) [46 Isomer 1] , tested on p300 HAT domain (residues 1287-1666) (Homo sapiens (Human), UniProt Q09472), has a reported pIC50 of < 5.30

Entry Cn1cc(-c2cccc(NC(=O)C(NCCc3ccc(C#N)cc3)c3ccccc3)n2)cn1 (single isomer, unassigned) [123 Isomer 2] under p300 HAT domain (residues 1287-1666) (Homo sapiens (Human), UniProt Q09472) had pIC50 of < 5.70
